- Measured on: T1, human GREM1 (hGREM1-His; SEQ ID NO: 595) (human, UniProt O60565 25-184)
- T1 construct: also called biotin-hGREM1-His; recombinant human GREM1 protein
- T1 sequence: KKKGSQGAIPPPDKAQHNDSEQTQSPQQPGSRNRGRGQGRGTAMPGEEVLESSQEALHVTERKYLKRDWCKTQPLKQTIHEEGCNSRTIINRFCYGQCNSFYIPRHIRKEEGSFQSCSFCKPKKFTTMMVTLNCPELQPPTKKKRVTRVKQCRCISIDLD
- Procedure details: SPR, Biacore T200, 25 C, mAb captured, hGREM1-His injected;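 note: Heparin-supplemented HBS-EP+ used as running buffer, association and dissociation phases followed, Kd computed as koff divided by kon and half-life derived from koff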
Measure: koff (s⁻¹)
Form entry: value (s⁻¹) — number only.

In the examples that follow, each entry is paired with its recorded koff.
Binder	koff (s⁻¹)
H4H6245P (antibody, human IgG4, V domains shown, H4H prefix = human IgG4 Fc) VH: EVQLVESGGGLVQPGGSLRLSCAASGFTFNSFWMSWVRQAPGKGLEWVANIKQDGSEKYYVDSVKGRFTISRDNAKNSVYLQMNSLRAEDTAVYYCARDLVTSFDYWGQGTLVTVSS VL: DIQMTQSPSSLSASVGDRVTITCQASQDINNYLNWYQQKPGKAPKLLIYDASYLETGVPSGFSGSGSGTDFTFTISSLQPEDIATYYCQQYDSLPYTFGQGTKLEIK	0.000117
H2aM2901N (antibody, mouse IgG2, V domains shown, H2M prefix = mouse IgG2 Fc (here H2aM); also called H2M2901N) VH: EVQLVESGGGLVKPGGSLRLSCAASGFTFSYYSMIWVRQAPGKGLEWVSSISSSSSYIYYADSVKGRFTISRDNAKKSMYLQMNSLRAEDTAVYYCARGSGYPDYWGQGTLVTVSS VL: DIQMTQSPSSLSASVGDRVTITCRASQGINNYLAWYQQKPGKVPKLLIYAASTLRSGVPSRFSGSGSGTDFTLTISSLQPEDVATYYCQKYNSAPFTFGPGTKVDIK	0.00145

Input: Which koff value belongs to H4H2889N (antibody, human IgG4, V domains shown, H4H prefix = human IgG4 Fc) VH: QVQLQESGPGLVKPSETLSLTCTVSGGSISNSYWSWIRQPPGKGLEWIGYIYYSGNTNYNPSLKSRVTISVDTSKNQFSLKLSSVTAADTAVYYCARVNDYSNYDSYYYGMDVWGQGTTVTVSS VL: AIQMTQSPSSLSASVGDRVTITCRASQGIRNDLGWYQQKPGKAPKLLIYAASSLQSGVPSRFSGSGSGTDFTLTISSLQPEDFATYYCLQDYNYPPTFGQGTKVDIK ?
Output: 0.000118
